In this section, each of the binders is paired with its reported OD492.
- ASSAYED_TARGET: T1, HCV Core1-169 (HCV-1, UniProt P26664 1-169)
- T1 construct: also called Solid Phase HCV Core
- T1 sequence: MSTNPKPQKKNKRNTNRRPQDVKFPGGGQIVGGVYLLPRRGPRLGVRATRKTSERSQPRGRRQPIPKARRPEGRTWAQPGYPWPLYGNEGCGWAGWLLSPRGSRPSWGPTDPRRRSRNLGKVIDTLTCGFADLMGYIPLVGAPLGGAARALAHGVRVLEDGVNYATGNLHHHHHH
- PROCEDURE_DETAILS: sandwich EIA, capture 208A-692
PROPERTY_LABEL: OD492 (OD)

HCV 208A-692 (antibody, V domains shown) VH: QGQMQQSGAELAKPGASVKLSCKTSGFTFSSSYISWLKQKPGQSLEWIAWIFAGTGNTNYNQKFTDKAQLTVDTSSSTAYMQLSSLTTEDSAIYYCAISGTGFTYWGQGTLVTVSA VL: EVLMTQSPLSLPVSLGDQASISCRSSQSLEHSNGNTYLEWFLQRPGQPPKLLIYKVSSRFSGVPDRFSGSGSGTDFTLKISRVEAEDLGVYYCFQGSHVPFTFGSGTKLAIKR	0.35
HCV 208A-557 (antibody, V domains shown) VH: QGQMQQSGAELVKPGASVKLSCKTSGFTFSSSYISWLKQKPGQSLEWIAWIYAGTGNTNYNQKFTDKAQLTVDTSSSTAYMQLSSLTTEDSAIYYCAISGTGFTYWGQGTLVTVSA VL: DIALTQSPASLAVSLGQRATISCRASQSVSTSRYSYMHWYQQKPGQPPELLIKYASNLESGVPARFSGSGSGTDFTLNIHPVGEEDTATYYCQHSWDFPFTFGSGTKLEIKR	0.13

Reference source for all entries: patent US9371374
